// reported IC50 for each item listed
Test system: LPS-induced TNFα production by RAW 264.7 macrophages
protocol.summary: TNFα production assay, LPS-activated RAW 264.7 macrophages
Type: cell-based
test.conditions: Mus musculus, RAW264.7; Table 4, unit inferred; read-out: TNFα production (RAW264.7)
Express it in µM; write the number only.

>  <compound>
CN(C)c1ccc(O)c2c1C[C@H]1C[C@H]3[C@H](N(C)C)C(O)=C(C(N)=O)C(=O)[C@@]3(O)C(O)=C1C2=O [Minocycline, minocycline, reference compound]

>  <endpoint.value>
47

$$$$

Exercise: Given the compound CCc1cc(N(C)C)c2c(c1O)C(=O)C1=C(O)[C@]3(O)C(=O)C(C(N)=O)=C(O)[C@@H](N(C)C)[C@@H]3C[C@@H]1C2 , write its reported IC50.
Key: 10.9

###

// reported Cmax for each item listed
protocol.summary: in vivo
test.conditions: monkey, po, 5 mg/kg

>  <compound>
CN(C)c1ccc(O)c2c1C[C@H]1C[C@H]3[C@H](N(C)C)C(O)=C(C(N)=O)C(=O)[C@@]3(O)C(O)=C1C2=O [Minocycline, minocycline, reference compound]

>  <Cmax>
4.4 µM

$$$$

Exercise: Given the compound CCc1cc(N(C)C)c2c(c1O)C(=O)C1=C(O)[C@]3(O)C(=O)C(C(N)=O)=C(O)[C@@H](N(C)C)[C@@H]3C[C@@H]1C2 , write its reported Cmax.
Key: 8.6 µM

###

protocol.summary: in vivo
test.conditions: rat, iv, 1 mg/kg
experimental.readout: AUC
Lab note: write values as number then unit, every time.

Exercise: Given the compound CN(C)c1ccc(O)c2c1C[C@H]1C[C@H]3[C@H](N(C)C)C(O)=C(C(N)=O)C(=O)[C@@]3(O)C(O)=C1C2=O [Minocycline, minocycline, reference compound] , write its reported AUC.
Key: 2.4 µM·h

###

protocol.summary: Bioavailability in the CNS of the mouse
test.conditions: brain, ip, 10 mg/kg
Protocol: Compounds were administered via the indicated routes and blood samples were removed at various times up to 24 hr. Concentration of compound was determined by LC/MS.
experimental.readout: concentration at 1 hr
Lab note: write values as number then unit, every time.

Exercise: Given the compound CN(C)c1ccc(O)c2c1C[C@H]1C[C@H]3[C@H](N(C)C)C(O)=C(C(N)=O)C(=O)[C@@]3(O)C(O)=C1C2=O [Minocycline, minocycline, reference compound] , write its reported concentration at 1 hr.
Key: 380 ng/g

###

protocol.summary: in vivo
test.conditions: monkey, po, 5 mg/kg
// reported Tmax for each item listed
Express it in h; write the number only.

>  <molecule>
CCc1cc(N(C)C)c2c(c1O)C(=O)C1=C(O)[C@]3(O)C(=O)C(C(N)=O)=C(O)[C@@H](N(C)C)[C@@H]3C[C@@H]1C2

>  <endpoint.value>
3

$$$$

Proceed to the following item.
Exercise: Given the molecule CN(C)c1ccc(O)c2c1C[C@H]1C[C@H]3[C@H](N(C)C)C(O)=C(C(N)=O)C(=O)[C@@]3(O)C(O)=C1C2=O [Minocycline, minocycline, reference compound] , write its reported Tmax.
Key: 3

###

protocol.summary: in vivo
test.conditions: monkey, po, 5 mg/kg
experimental.readout: bioavailability (%)
Express it in %; write the number only.

>  <compound>
CCc1cc(N(C)C)c2c(c1O)C(=O)C1=C(O)[C@]3(O)C(=O)C(C(N)=O)=C(O)[C@@H](N(C)C)[C@@H]3C[C@@H]1C2 [Compound 1]

>  <bioavailability [%]>
66.9

$$$$

Exercise: Given the compound CN(C)c1ccc(O)c2c1C[C@H]1C[C@H]3[C@H](N(C)C)C(O)=C(C(N)=O)C(=O)[C@@]3(O)C(O)=C1C2=O [Minocycline, minocycline, reference compound] , write its reported bioavailability.
Key: 80.1
